TGT: human ether-à-go-go-related gene (hERG) potassium channel (human, UniProt Q12809)
Sequence (Q12809 whole entry, looked up): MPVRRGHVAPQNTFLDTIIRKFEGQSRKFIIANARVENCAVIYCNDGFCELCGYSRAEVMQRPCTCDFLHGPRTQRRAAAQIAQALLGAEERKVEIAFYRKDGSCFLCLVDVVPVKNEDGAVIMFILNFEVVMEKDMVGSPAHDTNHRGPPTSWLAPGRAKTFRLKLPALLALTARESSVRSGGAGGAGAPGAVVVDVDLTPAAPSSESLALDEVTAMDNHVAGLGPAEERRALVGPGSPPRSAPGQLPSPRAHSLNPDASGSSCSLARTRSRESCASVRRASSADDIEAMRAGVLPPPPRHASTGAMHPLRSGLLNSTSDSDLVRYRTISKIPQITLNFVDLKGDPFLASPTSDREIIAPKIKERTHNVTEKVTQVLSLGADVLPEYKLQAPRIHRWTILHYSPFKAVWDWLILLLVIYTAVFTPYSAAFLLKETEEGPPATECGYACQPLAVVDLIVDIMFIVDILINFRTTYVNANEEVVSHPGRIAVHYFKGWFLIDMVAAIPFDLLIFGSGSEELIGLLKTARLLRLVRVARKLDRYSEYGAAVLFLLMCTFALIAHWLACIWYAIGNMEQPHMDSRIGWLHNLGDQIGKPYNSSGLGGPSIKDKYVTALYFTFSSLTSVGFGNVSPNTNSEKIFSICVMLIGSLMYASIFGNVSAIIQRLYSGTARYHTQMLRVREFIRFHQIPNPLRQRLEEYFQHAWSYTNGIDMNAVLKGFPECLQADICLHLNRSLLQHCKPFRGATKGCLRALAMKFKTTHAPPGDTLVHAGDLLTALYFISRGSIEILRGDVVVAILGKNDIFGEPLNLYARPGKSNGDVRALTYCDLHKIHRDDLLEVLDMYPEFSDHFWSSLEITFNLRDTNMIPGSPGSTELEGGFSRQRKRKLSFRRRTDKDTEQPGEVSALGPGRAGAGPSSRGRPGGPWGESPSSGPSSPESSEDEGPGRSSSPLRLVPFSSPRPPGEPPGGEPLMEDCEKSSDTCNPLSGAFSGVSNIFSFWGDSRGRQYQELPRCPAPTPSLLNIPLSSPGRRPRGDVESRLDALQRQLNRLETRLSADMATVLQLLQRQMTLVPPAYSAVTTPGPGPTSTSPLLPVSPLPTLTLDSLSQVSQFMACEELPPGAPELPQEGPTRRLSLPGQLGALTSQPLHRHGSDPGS
MEASUREMENT NOTES: primary screen, population patch clamp on CHO cells stably expressing hERG; higher = less effect of the substance;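 note: peak tail current of the secondary pulse compared with the same well before compound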
Screen size: about 310,000 compounds; about 14,000 (4.5%) showed an effect of 50% or more. Effects have a minus sign here. For the sample, strong results were picked, then their nearest neighbours and some compounds at random.
Parameter: hERG current change (%, negative = inhibition) at 10uM. Scope: all listed entries.
Kindly provide the numeric value in % only, without the unit symbol.

[
  {
    "MOLECULE": "COc1ccc(CCNC2CCc3ccccc3C2)cc1 (stereo not drawn)",
    "TGT": "human ether-à-go-go-related gene (hERG) potassium channel (human, UniProt Q12809)",
    "ENDPOINT VALUE": -56
  },
  {
    "MOLECULE": "COCCNC(=O)C1CCN(C(=O)C2CC(=O)N(c3ccc(C)cc3)C2)CC1 (stereo not drawn)",
    "TGT": "human ether-à-go-go-related gene (hERG) potassium channel (human, UniProt Q12809)",
    "ENDPOINT VALUE": 7.39
  },
  {
    "MOLECULE": "Cc1cccc(CN2CCc3c([nH]c4ccccc34)C2C(C)(C)C)n1 (stereo not drawn)",
    "TGT": "human ether-à-go-go-related gene (hERG) potassium channel (human, UniProt Q12809)",
    "ENDPOINT VALUE": 3.57
  },
  {
    "MOLECULE": "CCOC(=O)Cc1csc(NC(=O)Cc2ccccc2)n1",
    "TGT": "human ether-à-go-go-related gene (hERG) potassium channel (human, UniProt Q12809)",
    "ENDPOINT VALUE": 1.37
  },
  {
    "MOLECULE": "O=C1NC(=O)N(c2ccccc2)C(=O)/C1=C\\c1ccc2c3c(cccc13)CC2",
    "TGT": "human ether-à-go-go-related gene (hERG) potassium channel (human, UniProt Q12809)",
    "ENDPOINT VALUE": -20.4
  },
  {
    "MOLECULE": "CCOC(=O)c1c(C)n(C)c2cc(Br)c(O)c(O)c12",
    "TGT": "human ether-à-go-go-related gene (hERG) potassium channel (human, UniProt Q12809)",
    "ENDPOINT VALUE": 8.12
  }
]

Field request: hERG current change (%, negative = inhibition) at 10uM | item: COc1ccc(CCNC(=O)C2CC2)cc1 0.64

Field request: hERG current change (%, negative = inhibition) at 10uM | item: CN(C)c1ccc(C2N(C(=O)N3CCOCC3)CCN2S(=O)(=O)c2ccccc2)cc1 (stereo not drawn) 3.98

Field request: hERG current change (%, negative = inhibition) at 10uM | item: COc1ccc(NS(=O)(=O)c2cccc(Cl)c2)cc1S(=O)(=O)N1CCCCC1 7.81

Field request: hERG current change (%, negative = inhibition) at 10uM | item: Cc1ccc2c(c1)C(c1ccccc1)N(C(=O)c1ccc(Br)o1)CC(=O)N2 (stereo not drawn) -56.9

Measured values drawn from paper PMC4336329 for this set.
